tested.system: UniProt:P05177
Sequence (P05177 whole entry): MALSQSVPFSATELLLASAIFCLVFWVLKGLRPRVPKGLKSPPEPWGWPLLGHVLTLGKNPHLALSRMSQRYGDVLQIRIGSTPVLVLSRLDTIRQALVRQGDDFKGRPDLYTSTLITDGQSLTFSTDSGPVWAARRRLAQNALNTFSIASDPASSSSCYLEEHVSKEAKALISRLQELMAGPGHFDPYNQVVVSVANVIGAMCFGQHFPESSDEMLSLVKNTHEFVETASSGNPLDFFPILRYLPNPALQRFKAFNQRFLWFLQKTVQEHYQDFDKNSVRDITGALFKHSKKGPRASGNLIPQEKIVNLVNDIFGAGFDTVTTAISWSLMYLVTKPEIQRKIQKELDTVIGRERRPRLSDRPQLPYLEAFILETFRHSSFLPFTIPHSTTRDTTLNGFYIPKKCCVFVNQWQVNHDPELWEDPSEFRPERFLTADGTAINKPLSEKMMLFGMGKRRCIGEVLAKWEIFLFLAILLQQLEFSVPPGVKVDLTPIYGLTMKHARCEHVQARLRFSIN
test.description: in vitro
parameter: IC50

query.smiles | parameter | reported.value
CC[C@H](C)[C@@H]1NC(=O)[C@H](CC(=O)O)NC(=O)[C@H](CC(C)C)NC(=O)[C@H](Cc2ccc3ccccc3c2)NC(=O)[C@@H]2CCCN2[C@H](C(=O)NC(C)(C)C)[C@H](C)NC1=O | IC50 | > 15 µM

* * *

tested.system: CYP2C9 (Homo sapiens, UniProt P11712)
Sequence (P11712 whole entry): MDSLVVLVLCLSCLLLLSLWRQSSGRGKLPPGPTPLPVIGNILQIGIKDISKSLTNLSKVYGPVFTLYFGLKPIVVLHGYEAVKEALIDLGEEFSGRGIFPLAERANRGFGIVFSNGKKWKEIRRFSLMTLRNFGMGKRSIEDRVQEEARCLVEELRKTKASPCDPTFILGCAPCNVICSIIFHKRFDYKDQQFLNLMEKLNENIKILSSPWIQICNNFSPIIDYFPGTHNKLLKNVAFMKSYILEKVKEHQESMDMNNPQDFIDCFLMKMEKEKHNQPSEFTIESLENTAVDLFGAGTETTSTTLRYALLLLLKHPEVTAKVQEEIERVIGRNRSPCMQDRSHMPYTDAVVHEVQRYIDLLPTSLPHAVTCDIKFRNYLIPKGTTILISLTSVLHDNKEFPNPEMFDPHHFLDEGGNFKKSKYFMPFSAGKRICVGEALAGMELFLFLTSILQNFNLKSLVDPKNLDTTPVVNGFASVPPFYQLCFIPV
test.description: in vitro
pIC50: −log10 of the molar value.

query.smiles | pIC50
CC[C@H](C)[C@@H]1NC(=O)[C@H](CC(=O)O)NC(=O)[C@H](CC(C)C)NC(=O)[C@H](Cc2ccc3ccccc3c2)NC(=O)[C@@H]2CCCN2[C@H](C(=O)NC(C)(C)C)[C@H](C)NC1=O | < 4.82

* * *

test.description: in vivo
measurement.conditions: male, CD-1, mouse, iv, 5 mg/kg
parameter: half-life (h)

compound | parameter | reported.value
CC(C)C[C@@H]1NC(=O)c2ccc(-c3ccc(N4CCNCC4)cc3)c(c2)CNC(=O)[C@@H]2CCCN2[C@H](C(=O)NC(C)(C)C)[C@H](C)NC(=O)[C@H]([C@@H](C)O)NC(=O)[C@H](CC(=O)O)NC1=O [Compound No. 340] | half-life | 2

* * *

test.description: Plasma protein binding determination, equilibrium dialysis, mouse plasma
measurement.conditions: first table; buffer/buffer control
parameter: Control buffer/Buffer at 0.1 uM Cdonor/Creciever (%)

molecule | reported.value
CC(C)C[C@@H]1NC(=O)[C@H](Cc2ccccc2)NC(=O)[C@@H]2CCCN2[C@H](C(=O)NC(C)(C)C)[C@H](C)NC(=O)[C@H]([C@@H](C)O)NC(=O)[C@H](CC(=O)O)NC1=O [Compound No. 5] | 80
CC[C@H](C)[C@@H]1NC(=O)[C@H](CC(=O)O)NC(=O)[C@H](CC(C)C)NC(=O)[C@H](Cc2ccc3ccccc3c2)NC(=O)[C@@H]2CCCN2[C@H](C(=O)NC(C)(C)C)[C@H](C)NC1=O [Compound No. 15] | 86
CC(C)C[C@@H]1NC(=O)[C@H](Cc2c[nH]c3ccccc23)NC(=O)[C@@H]2CCCN2[C@H](C(=O)NC(C)(C)C)[C@H](C)NC(=O)[C@H]([C@@H](C)O)NC(=O)[C@H](CC(=O)O)NC1=O [ET00762] | 79
CC(C)C[C@@H]1NC(=O)[C@H](Cc2ccc(-c3ccccc3)cc2)NC(=O)[C@@H]2CCCN2[C@H](C(=O)NC(C)(C)C)[C@H](C)NC(=O)[C@H]([C@@H](C)O)NC(=O)[C@H](CC(=O)O)NC1=O [Compound No. 12] | 94

* * *

test.description: In vivo pharmacokinetic assessments in rodents
measurement.conditions: male, CD-1, mouse, in vivo, po, 40 mg/kg, half-life in colon, following oral dosing 40 mg/kg
parameter: half-life

molecule | reported.value
CC(C)C[C@@H]1NC(=O)c2ccc(-c3ccc(N4CCNCC4)cc3)c(c2)CNC(=O)[C@@H]2CCCN2[C@H](C(=O)NC(C)(C)C)[C@H](C)NC(=O)[C@H]([C@@H](C)O)NC(=O)[C@H](CC(=O)O)NC1=O [Compound No. 340] | > 21 h

* * *

test.description: In vivo pharmacokinetic assessments in rodents
measurement.conditions: male, CD-1, mouse, in vivo, po, 40 mg/kg
parameter: Tmax

molecule | parameter | reported.value
CC(C)C[C@@H]1NC(=O)c2ccc(-c3ccc(N4CCNCC4)cc3)c(c2)CNC(=O)[C@@H]2CCCN2[C@H](C(=O)NC(C)(C)C)[C@H](C)NC(=O)[C@H]([C@@H](C)O)NC(=O)[C@H](CC(=O)O)NC1=O [Compound No. 340] | Tmax | 5 min
